// reported growth per item
# Tested on: MALME-3M melanoma
# test.protocol: NCI-60 one-dose screen, 48 h (100 = growth as untreated, 0 = no growth, -100 = all killed)
# experimental.context: 10 µM unless noted
About 83,000 compounds went through this panel and 20% of them were active in at least one assay; those are over-represented in the sample as a whole.
Answer format: numeric, % implied, no suffix.

# molecule, endpoint.unit, growth
data = [
    ("O=C(/C=C\\c1ccc2ccccc2n1)c1cc(Cl)ccc1O", "%", 80.5),
    ("COc1ccc(-c2cc(NC(=O)Nc3ccc(O)cc3)no2)cc1", "%", 78),
    ("C[C@]12C[C@@H](c3ccoc3)OC(=O)[C@@H]1CC[C@]1(C)[C@@H]2CC[C@@H](O)[C@]1(C)O", "%", 81.6),
]

# next molecule below
Q. State growth on MALME-3M melanoma. Entry: CCCCCCCCCCCCCC(=O)C(C)N (centres undefined)
A. 77.8

* * *

# System: HCT-116 colon
# test.protocol: NCI-60 one-dose screen, 48 h (100 = growth as untreated, 0 = no growth, -100 = all killed)
# experimental.context: 10 µM unless noted
This is part of a sample that, as a whole, favours compounds with a hit. Of some 83,000 tested, about 20% had one in any assay.
// reported growth per item
Answer format: numeric, % implied, no suffix.

# compound, tgt, endpoint.unit, val
records = [
    ("CC(C)(C)n1cc(-c2ccnc(NCCCNS(=O)(=O)c3cccc4ccccc34)c2)c(-c2cccc(O)c2)n1", "HCT-116 colon", "%", 29.4),
]

Q. Return reported growth. Input compound: COc1ccc(C(=O)/C=C/c2cc3ccccc3[nH]c2=O)cc1
A. 8.02

Q. Return reported growth. Input compound: CC(C)CC(CC1=CCC2CC1C2(C)C)C1=C(O)C(C)(C)C(=O)C(C)(C)C1=O (centres undefined)
A. 6.3

Q. Return reported growth. Input compound: CCN(CC)CCCCNc1ccc(NCCCCN(CC)CC)c2c1C(=O)c1ccccc1C2=O
A. -58.4

Q. Return reported growth. Input compound: CC(C)[C@@H]1CC[C@]2(C(=O)NCCCCN=C(N)N)CC[C@]3(C)[C@H](CC[C@@H]4[C@@]5(C)CCC(=O)C(C)(C)[C@@H]5CC[C@]43C)[C@@H]12
A. 72.9

Q. Return reported growth. Input compound: COc1ccc(-c2cc(-c3cccnc3)nc3sc4c(=O)n(-c5ccc(C)cc5)cnc4c23)cc1OC
A. 99.1

* * *

# Test system: K-562 leukemia
# test.protocol: NCI-60 one-dose screen, 48 h
# experimental.context: 10 µM unless noted
The panel holds about 83,000 compounds, 20% with a hit somewhere; the sample as a whole holds those more often. Activity calls are given as the source filed them. The calls were made as follows: active = growth percent below 10; inactive = the rest.
Respond only with the outcome that fits, drawn from class 1 for active, class 0 for inactive

# molecule, assigned.label
rows = [
    ("N=c1c2ccccc2nc2n1CCCCC2", "class 0"),
    ("O=c1c(/C=C/c2ccco2)nnc(SCCN2CCOCC2)n1/N=C/c1ccc([N+](=O)[O-])cc1", "class 0"),
    ("CCOC(=O)/C=C/C(=O)[C@H](CC(C)C)NC(=O)[C@H](Cc1ccccc1)NC(=O)OCc1ccccc1", "class 1"),
    ("CC(C)(C)c1nn(-c2ccccc2)c2c1CC1(CN2Cc2ccc3c(c2)OCO3)C(=O)c2ccccc2C1=O", "class 0"),
]

Q. Returns: the outcome recorded for COc1ccc(-c2c3c(nc4n[nH]c(-c5ccc(Cl)cc5)c24)-c2ccccc2C(=O)C3=O)cc1 in this assay.
A. class 1

Q. Returns: the outcome recorded for O=C1O[C@H]([C@H](O)CO)C(O)=C1O in this assay.
A. class 0

Q. Returns: the outcome recorded for O=C1Nc2ccccc2/C1=C/C(=N/c1nnc(-c2ccc(Cl)cc2)s1)c1ccccc1 in this assay.
A. class 1

Q. Returns: the outcome recorded for CS(=O)(CCCCN=C=S)=NC(=O)c1c(F)c(F)c(F)c(F)c1F (stereo not drawn) in this assay.
A. class 0

* * *

# System: OVCAR-8 ovarian
# test.protocol: NCI-60 one-dose screen, 48 h
# experimental.context: 10 µM unless noted
Compounds without any hit were thinned out: in the full panel of roughly 83,000, 20% have a hit. The source made the active and inactive calls. How the source made its calls: active means growth percent below 10; inactive means the rest.
Respond only with the outcome that fits, drawn from label 1 = active, label 0 = inactive

# compound, assigned.label
data = [
    ("CN1CCOCCOCCOc2ccccc2NC(=O)c2nc(cnc2N)-c2ccc(cc2)S1(=O)=O", "label 0"),
    ("COc1cccc(/C=C2/C(=O)N(Cc3ccco3)SC2=S)c1OC", "label 0"),
    ("COc1ccc(-c2nc(Nc3cc(C)[nH]n3)c3ccccc3n2)cc1", "label 0"),
    ("CC(=O)OCC(=O)C1CCC=CC1OC(C)=O (stereo unspecified)", "label 0"),
    ("CC(=O)C1=C(O)C=C2Oc3c(C(=O)/C=C/c4c(Cl)cccc4Cl)c(O)c(C)c(O)c3[C@]2(C)C1=O", "label 1"),
]

Now turn to the next compound.
Q. Returns: the outcome recorded for Nc1cc2nc3ccccc3sc-2cc1=O in this assay.
A. label 0

* * *

// reported growth per item
# Test system: NCI-H460 lung
# test.protocol: NCI-60 one-dose screen, 48 h (100 = growth as untreated, 0 = no growth, -100 = all killed)
# experimental.context: 10 µM unless noted
About 83,000 compounds went through this panel and 20% of them were active in at least one assay; those are over-represented in the sample as a whole.
Answer format: numeric, % implied, no suffix.

Example results:
# compound, tgt, measured.property, val
measured = [
    ("C[C@@H]1CC[C@@H]2[C@@H]1[C@H](OC(=O)/C=C/c1ccccc1)[C@]1(c3ccccc3)C[C@@H](OC(=O)CO)[C@@]2(C)O1", "NCI-H460 lung", "growth", 92),
    ("COc1ccc(C(=O)/C=C/c2c(Cl)c3c(c(OC)c2Cl)OCC(=O)N3)cc1", "NCI-H460 lung", "growth", 12),
    ("CC(C)n1cc2c(N)ncnc2n1", "NCI-H460 lung", "growth", 107),
    ("COc1ccccc1/C=C(/C(=O)c1ccccc1)c1ccccc1", "NCI-H460 lung", "growth", 93.6),
]

Q. Return reported growth. Input compound: CC[C@@H](C)OC(=O)c1nn(C(C)=O)c2ccccc12
A. 112

Q. Return reported growth. Input compound: O=[N+]([O-])c1cccc(-c2nc3sccn3c2-c2ccnc(NCCNS(=O)(=O)c3ccc(C(F)(F)F)cc3)n2)c1
A. 33.4

* * *

# Tested on: U251 CNS
# test.protocol: NCI-60 one-dose screen, 48 h (100 = growth as untreated, 0 = no growth, -100 = all killed)
# experimental.context: 10 µM unless noted
About 83,000 compounds went through this panel and 20% of them were active in at least one assay; those are over-represented in the sample as a whole.
Just a reminder that ties go to No: only growth strictly below 90% counts as Yes.

# compound, assigned.label
data = [
    ("C[C@@]1(N2C(=O)OC[C@@H]2c2ccccc2)C(=O)N([C@H](CC(=O)N2CCC(N3CCCCC3)CC2)C(=O)NCc2cccc(C(F)(F)F)c2)[C@@H]1/C=C/c1ccccc1", "Yes"),
]

Q. Bench note: check whether NC(=S)N/N=C/c1ccc(OCc2ccccc2)cc1 shows growth below 90%
A. Yes

Q. Bench note: check whether COc1ccc(CNc2nccnn2)cc1 shows growth below 90%
A. No

Q. Bench note: check whether Cc1ccc2c(c1)C(=O)c1c-2c(OCCCN(C)C)nc2ccccc12 shows growth below 90%
A. Yes

Q. Bench note: check whether CC1CN(Cc2ccco2)C(=S)N(c2ccccc2)C1=O (stereo not drawn) shows growth below 90%
A. No

Q. Bench note: check whether COC1/C=C\OC2(C)Oc3c(C)c(O)c4c(O)c(c(CN(C)CCO)c(O)c4c3C2=O)NC(=O)/C(C)=C\C=C/C(C)C(O)C(C)C(O)C(C)C(OC(C)=O)C1C (stereo not drawn) shows growth below 90%
A. No

* * *

# Tested on: RXF 393 renal
# test.protocol: NCI-60 one-dose screen, 48 h (100 = growth as untreated, 0 = no growth, -100 = all killed)
# experimental.context: 10 µM unless noted
About 83,000 compounds went through this panel and 20% of them were active in at least one assay; those are over-represented in the sample as a whole.
measured.property: growth (%)
Answer format: numeric, % implied, no suffix.

Q. Return reported growth. Input molecule: O=C(/C=C\c1cccc([N+](=O)[O-])c1)c1ccccc1
A. 14.9

Q. Return reported growth. Input molecule: COc1ccc(C(=O)c2sc3nc4c(cc3c2N)CCCC4)cc1OC
A. 31.6

Q. Return reported growth. Input molecule: CCN(CC)CCCC(C)Nc1ccnc2c(OC)cccc12 (centres undefined)
A. 135

Q. Return reported growth. Input molecule: CC#CC#Cc1cccc(=O)o1
A. 47.3
